Sourced from patent US10865211B2

assay: Compound induced cellular toxicity in HepG2 cells (ATPlite); format: cell-based; settings: human, three days, ATPlite 1 Step, concentration reducing total ATP levels by 50% relative to no drug controls
measured_metric: CC50 at 3 days

As a guide, the following entries are already answered.
compound: CC(C)(C)[C@@H]1Cc2c(oc3c(OC(F)F)cccc23)-c2cc(=O)c(-c3ncn[nH]3)cn21 [Example 8]
meas_value: > 25 µM

compound: CC(C)(C)[C@@H]1Cc2c(oc3c(-c4cscn4)cccc23)-c2c(F)c(=O)c(C(=O)O)cn21 [Example 62]
meas_value: 10 to 25 µM

compound: CC(C)(C)[C@@H]1Cc2c(oc3c(-c4ccsc4)cccc23)-c2c(F)c(=O)c(C(=O)O)cn21 [Example 57]
meas_value: > 25 µM

compound: CC(C)[C@@H]1Cc2c(oc3c(-c4cccs4)cccc23)-c2cc(=O)c(C(=O)O)cn21 [Example 79]
meas_value: < 10 µM

compound: CC(C)(C)[C@@H]1Cc2c(oc3c(N4CCC(F)(F)C4)cccc23)-c2cc(=O)c(C(=O)O)cn21 [Example 36]
meas_value: > 25 µM

GET /values?readout=CC50 at 3 days&item= CC(C)(C)[C@@H]1Cc2c(oc3c(-c4ccoc4)cccc23)-c2c(F)c(=O)c(C(=O)O)cn21 [Example 48]
> 25 µM

Moving on to the next compound: CC(C)[C@@H]1Cc2c(oc3cc(C#N)ccc23)-c2cc(=O)c(C(=O)O)cn21 [Example 69]
> 25 µM

Note, next up: CC(C)[C@@H]1Cc2c(oc3cc(-c4ccsc4)ccc23)-c2cc(=O)c(C(=O)O)cn21 [Example 76]
> 25 µM

====

assay: Compound induced cellular toxicity in HepG2 cells (ATPlite); format: cell-based; details: human, three days, ATPlite 1 Step, concentration reducing total ATP levels by 50% relative to no drug controls
measured_metric: CC50 at 3 days

compound: CC(C)(C)[C@@H]1Cc2c(oc3c(-n4cccn4)cccc23)-c2cc(=O)c(C(=O)O)cn21
meas_value: > 25 µM
//
compound: CC(C)(C)[C@@H]1Cc2c(oc3c(-c4cnsc4)cccc23)-c2c(F)c(=O)c(C(=O)O)cn21
meas_value: > 25 µM
//
compound: CC(C)(C)[C@@H]1Cc2c(oc3c(-c4cn[nH]c4)cccc23)-c2c(F)c(=O)c(C(=O)O)cn21
meas_value: > 25 µM

# query: CC50 at 3 days of entry CCC1Cc2c(oc3ccccc23)-c2cc(=O)c(C(=O)O)cn21 (stereo not shown)
> 25 µM

Likewise for Cc1cccc2c3c(oc12)-c1c(F)c(=O)c(C(=O)O)cn1[C@H](C(C)(C)C)C3 ?
> 25 µM

Again, but for CC(C)(C)[C@@H]1Cc2c(oc3c(OC4COC4)cccc23)-c2cc(=O)c(C(=O)O)cn21
> 25 µM

====

# maps each entry to its CC50 at 3 days
test: Compound induced cellular toxicity in HepG2 cells (ATPlite); type: cell-based; conditions: human, three days, ATPlite 1 Step, concentration reducing total ATP levels by 50% relative to no drug controls

entry_smiles: CC(C)[C@@H]1Cc2c(oc3c(-c4ccco4)cccc23)-c2cc(=O)c(C(=O)O)cn21
CC50 at 3 days: 10 to 25 µM
//
entry_smiles: CC(C)(C)[C@@H]1Cc2c(oc3cc(OC(F)F)ccc23)-c2cc(=O)c(C(=O)O)cn21
CC50 at 3 days: 10 to 25 µM
//
entry_smiles: CC(C)(C)[C@@H]1Cc2c(oc3cc(-c4nccs4)ccc23)-c2cc(=O)c(C(=O)O)cn21
CC50 at 3 days: 10 to 25 µM
//
entry_smiles: CC(C)[C@@H]1Cc2c(oc3c(-c4ccoc4)cccc23)-c2cc(=O)c(C(=O)O)cn21
CC50 at 3 days: 10 to 25 µM
//
entry_smiles: CC(C)[C@@H]1Cc2c(oc3cc(-n4cccn4)ccc23)-c2cc(=O)c(C(=O)O)cn21
CC50 at 3 days: < 10 µM

Recorded CC50 at 3 days of CC(C)(C)[C@@H]1Cc2c(oc3c(C#N)cccc23)-c2cc(=O)c(C(=O)O)cn21 , please.
> 25 µM

Thanks! And Cc1cccc2c3c(oc12)-c1cc(=O)c(C(=O)O)cn1[C@H](C(C)C)C3 ?
> 25 µM

And what about the compound CC(C)[C@@H]1Cc2c(oc3c(-c4cnsc4)cccc23)-c2cc(=O)c(C(=O)O)cn21 ?
> 25 µM

Now try CC(C)(C)[C@@H]1Cc2c(oc3cc(OC(F)F)ccc23)-c2cc(=O)c(-c3ncn[nH]3)cn21 .
> 25 µM

Again, but for CC(C)(C)[C@@H]1Cc2c(oc3c(-c4nccs4)cccc23)-c2c(F)c(=O)c(C(=O)O)cn21
> 25 µM

Ok, now CC(C)(C)[C@@H]1Cc2c(oc3c(-c4ccn[nH]4)cccc23)-c2c(F)c(=O)c(C(=O)O)cn21
> 25 µM

Cn1nccc1-c1cccc2c3c(oc12)-c1c(F)c(=O)c(C(=O)O)cn1[C@H](C(C)(C)C)C3 , same question.
> 25 µM

Next record, please: CC(C)(C)[C@@H]1Cc2c(oc3c(-c4cnco4)cccc23)-c2c(F)c(=O)c(C(=O)O)cn21
> 25 µM

Repeat for the following compound: CC(C)(C)[C@@H]1Cc2c(oc3cc(C4CC4)ccc23)-c2cc(=O)c(C(=O)O)cn21
10 to 25 µM

Check CC(C)(C)[C@@H]1Cc2c(oc3c(-c4ccn[nH]4)cccc23)-c2cc(=O)c(C(=O)O)cn21 too.
> 25 µM

Field entry: CC(C)(C)[C@@H]1Cc2c(oc3c(C4CC4)cccc23)-c2c(F)c(=O)c(C(=O)O)cn21
> 25 µM

====

The entries below come with measured CC50 at 3 days values attached.
experiment: Compound induced cellular toxicity in HepG2 cells (ATPlite); format: cell-based; conditions: human, three days, ATPlite 1 Step, concentration reducing total ATP levels by 50% relative to no drug controls

Take a look at these entries with their results.
compound: CC(C)(C)[C@@H]1Cc2c(oc3c(-c4cccs4)cccc23)-c2cc(=O)c(C(=O)O)cn21
measured_metric: CC50 at 3 days
meas_value: > 25 µM

compound: O=C(O)c1cn2c(cc1=O)-c1oc3ccccc3c1CC2c1ccccc1 (stereo not shown)
measured_metric: CC50 at 3 days
meas_value: > 25 µM

compound: CC(C)(C)[C@@H]1Cc2c(oc3c(-c4cn[nH]c4)cccc23)-c2cc(=O)c(C(=O)O)cn21
measured_metric: CC50 at 3 days
meas_value: > 25 µM

# get_value(readout='CC50 at 3 days', item= CC(C)(C)[C@@H]1Cc2c(oc3c(OC(F)F)cccc23)-c2cc(=O)c(C(=O)O)cn21 )
> 25 µM

Thanks! And COc1cccc2c3c(oc12)-c1cc(=O)c(C(=O)O)cn1[C@H](C(C)(C)C)C3 ?
> 25 µM

====

Entries and their measured CC50 at 3 days follow.
test: Compound induced cellular toxicity in HepG2 cells (ATPlite); format: cell-based; conditions: human, three days, ATPlite 1 Step, concentration reducing total ATP levels by 50% relative to no drug controls

entry_smiles: CC(C)(C)[C@@H]1Cc2c(oc3cc(-c4cnco4)ccc23)-c2cc(=O)c(C(=O)O)cn21
CC50 at 3 days: > 25 µM
--
entry_smiles: CC(C)(C)[C@@H]1Cc2c(oc3c(-c4ccco4)cccc23)-c2c(F)c(=O)c(C(=O)O)cn21
CC50 at 3 days: > 25 µM
--
entry_smiles: CC(C)(C)[C@@H]1Cc2c(oc3cc(C#N)ccc23)-c2cc(=O)c(C(=O)O)cn21
CC50 at 3 days: > 25 µM

Look up CC50 at 3 days: Cn1nccc1-c1cccc2c3c(oc12)-c1cc(=O)c(C(=O)O)cn1[C@H](C(C)(C)C)C3
> 25 µM

Same thing, different compound: CC(C)(C)[C@@H]1Cc2c(oc3c(-c4cscn4)cccc23)-c2cc(=O)c(C(=O)O)cn21
10 to 25 µM

====

Each entry below lists one item and its recorded CC50 at 3 days value.
assay: Compound induced cellular toxicity in HepG2 cells (ATPlite); assay type: cell-based; conditions: human, three days, ATPlite 1 Step, concentration reducing total ATP levels by 50% relative to no drug controls

Examples from the recorded data:
molecule: CC(C)[C@@H]1Cc2c(oc3c(-c4ccsc4)cccc23)-c2cc(=O)c(C(=O)O)cn21 [Example 80]
CC50 at 3 days: < 10 µM
--
molecule: CC(C)[C@@H]1Cc2c(oc3cc(C4CC4)ccc23)-c2cc(=O)c(C(=O)O)cn21 [Example 74]
CC50 at 3 days: 10 to 25 µM
--
molecule: Cc1ccc2c3c(oc2c1)-c1cc(=O)c(C(=O)O)cn1[C@H](C(C)C)C3 [Example 73]
CC50 at 3 days: > 25 µM
--
molecule: Cn1cc(-c2ccc3c4c(oc3c2)-c2cc(=O)c(C(=O)O)cn2[C@H](C(C)(C)C)C4)cn1 [Example 10]
CC50 at 3 days: > 25 µM
--
molecule: Cc1ccc2c3c(oc2c1)-c1cc(=O)c(C(=O)O)cn1[C@H](C(C)(C)C)C3 [Example 24]
CC50 at 3 days: > 25 µM

Please report the recorded CC50 at 3 days for Cn1cc(-c2cccc3c4c(oc23)-c2cc(=O)c(C(=O)O)cn2[C@H](C(C)(C)C)C4)cn1 [Example 29] .
10 to 25 µM

Record: CC(C)(C)[C@@H]1Cc2c(oc3cc(-c4ccn[nH]4)ccc23)-c2cc(=O)c(C(=O)O)cn21 [Example 14]
> 25 µM

Now consider Cn1nccc1-c1ccc2c3c(oc2c1)-c1cc(=O)c(C(=O)O)cn1[C@H](C(C)(C)C)C3 [Example 11] .
> 25 µM

Now the same for CC(C)[C@@H]1Cc2c(oc3c(-c4cnco4)cccc23)-c2cc(=O)c(C(=O)O)cn21 [Example 84]
> 25 µM

And then CC(C)[C@@H]1Cc2c(oc3c(C4CC4)cccc23)-c2cc(=O)c(C(=O)O)cn21 [Example 83] , what is it?
< 10 µM
